# measured.target: human APJ receptor (Homo sapiens (Human), UniProt P35414)
# Sequence (P35414 whole entry): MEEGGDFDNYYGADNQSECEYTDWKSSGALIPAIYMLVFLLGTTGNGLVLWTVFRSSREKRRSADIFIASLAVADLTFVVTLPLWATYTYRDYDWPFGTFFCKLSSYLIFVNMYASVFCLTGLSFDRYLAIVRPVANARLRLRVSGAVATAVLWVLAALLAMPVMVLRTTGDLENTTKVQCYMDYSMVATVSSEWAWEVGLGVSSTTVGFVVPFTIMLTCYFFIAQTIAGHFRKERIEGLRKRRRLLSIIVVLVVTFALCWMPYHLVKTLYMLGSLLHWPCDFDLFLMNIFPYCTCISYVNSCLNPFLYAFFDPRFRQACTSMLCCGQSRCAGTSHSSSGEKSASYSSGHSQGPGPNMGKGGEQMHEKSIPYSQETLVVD
# method.notes: [35S]GTPγS binding assay on membranes from CHO cells stably expressing human APJ receptor
# protocol.conditions: membranes of CHO cells stably expressing human APJ receptor, read-out: Activity hAPJ SPA EC50 IP
We'd kindly ask you to apply these EC50 classes: low: < 4 nM; mid: ≥ 4 nM and < 40 nM; high: ≥ 40 nM

compound: COc1cnc([C@@H](OC)[C@H](C)S(=O)(=O)Nc2nnc(-c3cccc(OC)n3)n2[C@H]2CC23CC3)cn1 (single isomer, unassigned) [Example 160.0]
measured.target: human APJ receptor (Homo sapiens (Human), UniProt P35414)
classification: high

compound: CC[C@@H](c1c(C)noc1C)n1c(NS(=O)(=O)[C@@H](C)[C@H](C)c2ncc(Cl)cn2)nnc1-c1cccc(OC)n1 (single isomer, unassigned) [Example 224.0]
measured.target: human APJ receptor (Homo sapiens (Human), UniProt P35414)
classification: mid

compound: COc1cccc(-c2nnc(NS(=O)(=O)[C@@H](C)[C@H](OC)c3ncc(Cl)cn3)n2[C@@H]2CC23CC3)n1 (single isomer, unassigned) [Example 91.0]
measured.target: human APJ receptor (Homo sapiens (Human), UniProt P35414)
classification: mid

compound: COc1cccc(-c2nnc(NS(=O)(=O)[C@@H](C)[C@H](C)c3ncc(Cl)cn3)n2[C@@H](C)c2ncn(C)n2)n1 (single isomer, unassigned) [Example 238.0]
measured.target: human APJ receptor (Homo sapiens (Human), UniProt P35414)
classification: mid

compound: CCC(CC)n1c(NS(=O)(=O)[C@@H](C)[C@H](OC)c2ncc(Cl)cn2)nnc1-c1cccc(OC)n1
measured.target: human APJ receptor (Homo sapiens (Human), UniProt P35414)
classification: low

compound: CC(C)O[C@@H](c1ncc(Cl)cn1)[C@H](C)S(=O)(=O)Nc1nnc(-c2cccnc2)n1C1CC1
measured.target: human APJ receptor (Homo sapiens (Human), UniProt P35414)
classification: high

compound: COc1cccc(-c2nnc(NS(=O)(=O)[C@@H](C)[C@H](OC)c3ncc(Cl)cn3)n2[C@@H](C)c2ccno2)n1 (single isomer, unassigned) [Example 213.0]
measured.target: human APJ receptor (Homo sapiens (Human), UniProt P35414)
classification: low

compound: COCC1(n2c(NS(=O)(=O)[C@@H](C)[C@@H](OC(C)C)c3ncc(C)cn3)nnc2-c2cccc(OC)n2)CC1
measured.target: human APJ receptor (Homo sapiens (Human), UniProt P35414)
classification: low

compound: COCC(COC)n1c(NS(=O)(=O)[C@@H](C)[C@H](C)c2ncc(OC)cn2)nnc1-c1cccc(OC)n1
measured.target: human APJ receptor (Homo sapiens (Human), UniProt P35414)
classification: mid

compound: COc1cccc(-c2nnc(NS(=O)(=O)[C@@H](C)[C@H](OC)c3ncc(Cl)cn3)n2[C@@H](C)c2ncn(C)n2)n1 (single isomer, unassigned) [Example 235.0]
measured.target: human APJ receptor (Homo sapiens (Human), UniProt P35414)
classification: high

compound: CO[C@H](c1ncc(Cl)cn1)[C@H](C)S(=O)(=O)Nc1nnc(-c2ccccn2)n1C
measured.target: human APJ receptor (Homo sapiens (Human), UniProt P35414)
classification: high

compound: CCc1cc(Cn2c(NS(=O)(=O)[C@@H](C)[C@H](C)c3ncc(Cl)cn3)nnc2-c2cccc(OC)n2)on1
measured.target: human APJ receptor (Homo sapiens (Human), UniProt P35414)
classification: mid

compound: COc1cccc(-c2nnc(NS(=O)(=O)[C@@H](C)[C@H](C)c3ncc(C)cn3)n2Cc2ccon2)n1
measured.target: human APJ receptor (Homo sapiens (Human), UniProt P35414)
classification: mid

compound: CO[C@H](c1ncc(Cl)cn1)[C@H](C)S(=O)(=O)Nc1nnc(-c2cccc(C)n2)n1C1(C)CCC1
measured.target: human APJ receptor (Homo sapiens (Human), UniProt P35414)
classification: mid

compound: COc1cccc(-c2nnc(NS(=O)(=O)[C@@H](C)[C@@H](OC(C)C)c3ncc(C)cn3)n2C[C@H]2CCCO2)n1 (racemic) [Example 278.0]
measured.target: human APJ receptor (Homo sapiens (Human), UniProt P35414)
classification: mid

compound: COCC(COC)n1c(NS(=O)(=O)[C@@H](C)[C@H](OC)c2ncc(Cl)cn2)nnc1-c1cccnc1
measured.target: human APJ receptor (Homo sapiens (Human), UniProt P35414)
classification: high

compound: COc1cccc(-c2nnc(NS(=O)(=O)[C@@H](C)[C@H](OC)c3ncc(Cl)cn3)n2CC2CCOC2)n1 (single isomer, unassigned) [Example 285.0]
measured.target: human APJ receptor (Homo sapiens (Human), UniProt P35414)
classification: high

compound: COCC(COC)n1c(NS(=O)(=O)[C@@H](C)[C@H](C)c2ncc(Cl)cn2)nnc1-c1cccnc1
measured.target: human APJ receptor (Homo sapiens (Human), UniProt P35414)
classification: mid

compound: COc1cccc(-c2nnc(NS(=O)(=O)[C@@H](C)[C@H](OC)c3ncc(Cl)cn3)n2[C@@H](C)c2noc(C)n2)n1 (single isomer, unassigned) [Example 243.0]
measured.target: human APJ receptor (Homo sapiens (Human), UniProt P35414)
classification: low

compound: CC[C@H](c1cc(F)cc(F)c1)n1c(NS(=O)(=O)[C@@H](C)[C@H](OC)c2ncc(Cl)cn2)nnc1-c1cccc(OC)n1 (single isomer, unassigned) [Example 343.0]
measured.target: human APJ receptor (Homo sapiens (Human), UniProt P35414)
classification: low

compound: COCC(COC)n1c(NS(=O)(=O)[C@@H](C)[C@H](OC)c2ncc(C)cn2)nnc1-c1ccccn1
measured.target: human APJ receptor (Homo sapiens (Human), UniProt P35414)
classification: mid

compound: COc1cccc(-c2nnc(NS(=O)(=O)[C@@H](C)[C@H](OC)c3ncc(Cl)cn3)n2[C@H](C)c2cscn2)n1 (single isomer, unassigned) [Example 345.0]
measured.target: human APJ receptor (Homo sapiens (Human), UniProt P35414)
classification: low

compound: COc1cccc(-c2nnc(NS(=O)(=O)[C@@H](C)[C@H](OC)c3cnc(C)cn3)n2Cc2cnoc2)n1
measured.target: human APJ receptor (Homo sapiens (Human), UniProt P35414)
classification: high

compound: COCC1(n2c(NS(=O)(=O)[C@@H](C)[C@H](OC)c3ncc(Cl)cn3)nnc2-c2cccc(OC)n2)CC1
measured.target: human APJ receptor (Homo sapiens (Human), UniProt P35414)
classification: low
